Listing of entries alongside the reported IC50.
subject of test: Recombinant (1-346) HPK1 (h) (Homo sapiens, UniProt Q92918)
Construct: Recombinant (1-346) HPK1 (h) is incubated with 8 mM MOPS pH 7.0
Sequence (Q92918 1-346): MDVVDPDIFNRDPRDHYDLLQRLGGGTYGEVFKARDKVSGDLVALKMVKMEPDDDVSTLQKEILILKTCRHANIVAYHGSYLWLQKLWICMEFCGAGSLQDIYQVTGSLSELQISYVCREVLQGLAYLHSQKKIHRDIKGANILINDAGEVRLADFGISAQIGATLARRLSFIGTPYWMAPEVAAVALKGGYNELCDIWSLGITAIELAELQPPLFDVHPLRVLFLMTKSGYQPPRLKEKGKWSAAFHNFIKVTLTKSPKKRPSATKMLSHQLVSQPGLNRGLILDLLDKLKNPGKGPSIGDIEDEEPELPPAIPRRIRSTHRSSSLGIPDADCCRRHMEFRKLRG
assay overview: HPK1 Human STE Kinase Enzymatic Radiometric Assay
Type: biochemical
condition parameters: read-out: HPK1 IC50 nM Range*

Completed entries (count: 6):
[Q] Determine from records and report IC50 for Nc1nc(F)c(-c2ccc(N3CCNCC3)c(C(F)(F)F)c2)cc1-c1cc2c(cc1F)C(=O)NCC2
[A] 0.1 to 10 nM

[Q] Determine from records and report IC50 for CC(C)CN(C)C1CCN(c2ccc(-c3cc(-c4ccc5c(c4)CCNC5=O)c(N)nc3F)cc2)C1 (centres unmarked)
[A] 0.1 to 10 nM

[Q] Determine from records and report IC50 for Nc1nc(F)c(-c2ccc(OC3CCN(CC(F)(F)F)CC3)cc2)cc1-c1ccc2c(c1)CCNC2=O
[A] 11 to 100 nM

[Q] Determine from records and report IC50 for CN1C[C@@H]2C[C@]2(c2ccc(-c3cc(-c4ccc5c(=O)[nH]cc(F)c5c4)c(N)nc3F)cc2)C1
[A] 0.1 to 10 nM

[Q] Determine from records and report IC50 for Nc1nc(F)c(-c2ccc(OCC3CC3)cc2)cc1-c1cc2c(cc1F)C(=O)NCC2
[A] 11 to 100 nM

[Q] Determine from records and report IC50 for Nc1nc(F)c(-c2ccc(N3CCNCC3)c(C(F)(F)F)c2)cc1-c1ccc2c(c1)CCNC2=O
[A] 0.1 to 10 nM

More entries:
[Q] Determine from records and report IC50 for CN(C)C1CCN(c2ccc(-c3cc(-c4ccc5c(c4)CCNC5=O)c(N)nc3F)cc2)C1 (centres unmarked)
[A] 0.1 to 10 nM

[Q] Determine from records and report IC50 for CN(C)C1CCN(c2ccc(-c3cc(-c4ccc5c(c4)CCNC5=O)c(N)nc3F)cc2)CC1
[A] 0.1 to 10 nM

[Q] Determine from records and report IC50 for COC1CCN(Cc2cc(-c3cc(-c4ccc5c(c4)CCNC5=O)c(N)nc3F)ccc2N2CCOCC2)CC1
[A] 11 to 100 nM

[Q] Determine from records and report IC50 for CC(C)N1CCN(c2ccc(-c3cc(-c4cc5c(cc4Cl)C(=O)NCC5)c(N)nc3F)cc2)CC1
[A] 0.1 to 10 nM

[Q] Determine from records and report IC50 for CN1CCCN(S(=O)(=O)c2ccc(-c3cc(-c4ccc5c(c4)CCNC5=O)c(N)nc3F)cc2)CC1
[A] 0.1 to 10 nM

[Q] Determine from records and report IC50 for CN(C)CCN(C)c1ccc(-c2cc(-c3ccc4c(c3)CCNC4=O)c(N)nc2F)cc1
[A] 0.1 to 10 nM

[Q] Determine from records and report IC50 for CN(C)Cc1cc(-c2cc(-c3cc(F)c4c(c3)CCNC4=O)c(N)nc2F)ccc1N1CCOCC1
[A] 0.1 to 10 nM

[Q] Determine from records and report IC50 for Nc1nc(F)c(-c2ccc(N3CCN(CC4CC4)CC3)cc2)cc1-c1ccc2c(=O)[nH]cc(F)c2c1
[A] 0.1 to 10 nM

[Q] Determine from records and report IC50 for Nc1nc(F)c(-c2ccc(N3CCN(CC(F)(F)F)CC3)cc2)cc1-c1cc2c(cc1F)C(=O)NCC2
[A] 0.1 to 10 nM

[Q] Determine from records and report IC50 for Nc1nc(F)c(-c2ccc3c(c2)OCCCO3)cc1-c1cc2c(cc1F)C(=O)NCC2
[A] 0.1 to 10 nM

[Q] Determine from records and report IC50 for CN(C)Cc1cc(-c2cc(-c3ccc4c(c3)CCNC4=O)c(N)nc2F)cnc1N1CCOCC1
[A] 11 to 100 nM
